Data credit: patent US20260250371A1

Target: T1, recombinant human FGF23 (R179Q) (human, UniProt Q9GZV9 25-251)
T1 construct: also called rhFGF23(R179Q); hFGF23(R179Q)
T1 sequence (looked up): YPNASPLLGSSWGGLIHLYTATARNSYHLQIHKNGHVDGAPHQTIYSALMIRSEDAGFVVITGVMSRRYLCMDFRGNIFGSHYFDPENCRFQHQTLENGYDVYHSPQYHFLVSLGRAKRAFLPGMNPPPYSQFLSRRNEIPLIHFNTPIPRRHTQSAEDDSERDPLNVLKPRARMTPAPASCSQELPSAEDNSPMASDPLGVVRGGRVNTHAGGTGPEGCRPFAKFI
Experiment: SPR, antibody captured on hIgG chip, rhFGF23(R179Q) analyte
SA (surface activity) values, listed per item
Report only the number, with the unit % understood.

binder	SA (surface activity) / %
UGX126 (antibody, human IgG1, kappa, V domains shown, also called LC:S52D; S52D) VH: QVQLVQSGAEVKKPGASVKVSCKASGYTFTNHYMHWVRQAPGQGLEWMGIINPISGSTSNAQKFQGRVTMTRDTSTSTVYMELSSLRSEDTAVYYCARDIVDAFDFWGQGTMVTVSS VL: AIQLTQSPSSLSASVGDRVTITCRASQGISSALVWYQQKPGKAPKLLIYDADSLESGVPSRFSGSGSGTDFTLTISSLQPEDFATYYCQQFNDYFTFGPGTKVDIKR	86.5
UGX201 (antibody, human IgG1, kappa, V domains shown, also called HC:S59E, LC:N92F; S59E/N92F) VH: QVQLVQSGAEVKKPGASVKVSCKASGYTFTNHYMHWVRQAPGQGLEWMGIINPISGSTENAQKFQGRVTMTRDTSTSTVYMELSSLRSEDTAVYYCARDIVDAFDFWGQGTMVTVSS VL: AIQLTQSPSSLSASVGDRVTITCRASQGISSALVWYQQKPGKAPKLLIYDASSLESGVPSRFSGSGSGTDFTLTISSLQPEDFATYYCQQFFDYFTFGPGTKVDIKR	83.4
UGX157 (antibody, human IgG1, kappa, V domains shown, also called HC:I54Y; I54Y) VH: QVQLVQSGAEVKKPGASVKVSCKASGYTFTNHYMHWVRQAPGQGLEWMGIINPYSGSTSNAQKFQGRVTMTRDTSTSTVYMELSSLRSEDTAVYYCARDIVDAFDFWGQGTMVTVSS VL: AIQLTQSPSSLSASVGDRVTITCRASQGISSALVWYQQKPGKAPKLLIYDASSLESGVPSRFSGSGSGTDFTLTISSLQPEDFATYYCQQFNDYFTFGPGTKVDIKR	89.1

Please turn your attention to the following entry.
Exercise: Please give the measured SA (surface activity) for this binder: UGX205 (antibody, human IgG1, kappa, V domains shown, also called HC:S59E, LC:Y94D; S59E/Y94D) VH: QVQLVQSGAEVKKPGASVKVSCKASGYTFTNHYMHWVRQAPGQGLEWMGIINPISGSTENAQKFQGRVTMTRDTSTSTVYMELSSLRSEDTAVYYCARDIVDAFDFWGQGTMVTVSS VL: AIQLTQSPSSLSASVGDRVTITCRASQGISSALVWYQQKPGKAPKLLIYDASSLESGVPSRFSGSGSGTDFTLTISSLQPEDFATYYCQQFNDDFTFGPGTKVDIKR
Key: 93.9
